Biological target: 5HT1a receptors (Rattus norvegicus)
Construct: synaptosomal membranes isolated from cerebral cortex; from tissue; host or cells: rat cerebral cortex, crude synaptosomal membranes (Male Sprague-Dawley rats from Harlan Industries)
Sequence (P19327 1-422): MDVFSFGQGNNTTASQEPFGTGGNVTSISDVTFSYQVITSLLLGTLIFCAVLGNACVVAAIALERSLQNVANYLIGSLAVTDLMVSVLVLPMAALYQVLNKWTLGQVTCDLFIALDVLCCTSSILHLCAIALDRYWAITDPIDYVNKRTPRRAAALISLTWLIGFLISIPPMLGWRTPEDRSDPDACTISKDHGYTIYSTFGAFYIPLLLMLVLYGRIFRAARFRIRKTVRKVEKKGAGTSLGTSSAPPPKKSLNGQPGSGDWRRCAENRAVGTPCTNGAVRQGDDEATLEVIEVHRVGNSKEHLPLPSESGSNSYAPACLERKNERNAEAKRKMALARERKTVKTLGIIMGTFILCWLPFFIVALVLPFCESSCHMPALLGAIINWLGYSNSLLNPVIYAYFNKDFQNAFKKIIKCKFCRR
Experiment: Binding at 5HT1a receptors in vitro (inhibition of 3H-8-OH-DPAT binding to synaptosomal membranes from cerebral cortex)
Design: species or system Male Sprague-Dawley rats
Settings: IC50 5HT1a, 0.4 nM 3H-8-OH-DPAT, 37° C., 10 min, pH 7.4, several values in a cell are separate determinations
Listed below: IC50 values for each entry.

| Compound | IC50, µM |
| --- | --- |
| C=CCN(CC=C)C1CCc2cccc(Cl)c2C1 (centres unmarked) | 0.0452 |
| CCCN(CCC)C1CCc2cccc(Cl)c2C1 (centres unmarked) | 0.018 |
| CCCN(CCC)C1CCc2cccc(C=O)c2C1 (centres unmarked) | 0.0172 |
| CCCN(CCC)C1CCc2cccc(C#N)c2C1 (centres unmarked) | 0.055 |
| CCCN(CCC)C1CCc2cccc(CO)c2C1 (centres unmarked) | 0.0555 |

====

tested on: conscious spontaneous hypertensive rats (SHR); assay: Effect on blood pressure after i.v. administration to conscious SHR; type: in vivo; conditions: Rattus norvegicus, iv, 0.25 h; 15 min. after treatment, i.v., conscious SHR; read-out: Blood Pressure ED25 (i.v. dose required to decrease pressure 25%)
Field 'label' (enum: y / n). Set to y when ED25 is strictly under 3 mg/kg; else n.

| Compound | Measured On | Answer Label |
| --- | --- | --- |
| CCCN(CCC)C1CCc2cccc(F)c2C1 (stereo not shown) | conscious spontaneous hypertensive rats (SHR) | n |
| CCCN(C)C1CCc2cccc(Cl)c2C1 (stereo not shown) | conscious spontaneous hypertensive rats (SHR) | y |
| CC(C)N(C)C1CCc2cccc(Cl)c2C1 (stereo not shown) | conscious spontaneous hypertensive rats (SHR) | y |
| CCCN(CCC)C1CCc2cccc(CO)c2C1 (stereo not shown) | conscious spontaneous hypertensive rats (SHR) | n |
| CCCN(CCC)C1CCc2cccc(C(N)=O)c2C1 (stereo not shown) | conscious spontaneous hypertensive rats (SHR) | n |
| CCCN(CCC)C1CCc2cccc(Cl)c2C1 (stereo not shown) | conscious spontaneous hypertensive rats (SHR) | n |
| CCCN(CCC)C1CCc2cccc(C#N)c2C1 (stereo not shown) | conscious spontaneous hypertensive rats (SHR) | n |
| CCN(C)C1CCc2cccc(Cl)c2C1 (stereo not shown) | conscious spontaneous hypertensive rats (SHR) | y |
| CN(C)C1CCc2cccc(C(N)=O)c2C1 (stereo not shown) | conscious spontaneous hypertensive rats (SHR) | n |
| CNC1CCc2cccc(Cl)c2C1 (stereo not shown) | conscious spontaneous hypertensive rats (SHR) | y |
| CN(C)C1CCc2cccc(Cl)c2C1 (stereo not shown) | conscious spontaneous hypertensive rats (SHR) | y |
| CCCN(CCC)C1CCc2cccc(Br)c2C1 (stereo not shown) | conscious spontaneous hypertensive rats (SHR) | n |
| CCCNC1CCc2cccc(Cl)c2C1 (stereo not shown) | conscious spontaneous hypertensive rats (SHR) | y |
